Let's look at some molecules and their measured Cyno Primary Hepatocyte Editing % 2500.
# System: PCSK9 gene
# PROTOCOL_DESCRIPTION: PCSK9 gRNA/SpCas9 editing in primary cynomolgus hepatocytes (Tables 2, 22)
# Assay type: cell-based, cynomolgus monkey
# ASSAY_CONDITIONS: 2500 ng/RNA/mL; SpCas9 mRNA MS002 1:1 by weight
In the oligonucleotide strings, read from the 5' end, every base follows the letter of its sugar. An asterisk marks phosphorothioate; unmarked linkages are phosphodiester. Other units and linkages are bracketed, terminal groups are in braces. A string of capitals states the bases alone. m = 2'-O-methyl; r = 2'-OH (RNA)
PARAMETER_MEASURED: Cyno Primary Hepatocyte Editing % 2500 (%)

- MOLECULE: "GA220: PCSK9 gRNA; protospacer GTGCTCAACTGCCAAGGGAA (SEQ ID NO: 214) (nucleic acid, sugars from the 5' end m3 r94 m3, linkages s3 o93 s3 (s phosphorothioate, o phosphodiester), T or U not given here) guide: GUGCUCAACUGCCAAGGGAAGUUUUAGAGCUAGAAAUAGCAAGUUAAAAUAAGGCUAGUCCGUUAUCAACUUGAAAAAGUGGCACCGAGUCGGUGCUUUU"
  OBSERVED_VALUE: 45.17
- MOLECULE: "GA176: PCSK9 gRNA; protospacer AGCACCACCACGTAGGTGCC (SEQ ID NO: 170) (nucleic acid, sugars from the 5' end m3 r94 m3, linkages s3 o93 s3 (s phosphorothioate, o phosphodiester), T or U not given here) guide: AGCACCACCACGUAGGUGCCGUUUUAGAGCUAGAAAUAGCAAGUUAAAAUAAGGCUAGUCCGUUAUCAACUUGAAAAAGUGGCACCGAGUCGGUGCUUUU"
  OBSERVED_VALUE: 22.65
- MOLECULE: "GA244: PCSK9 gRNA; protospacer TTCCGAATAAACTCCAGGCC (SEQ ID NO: 237) (nucleic acid, sugars from the 5' end m3 r94 m3, linkages s3 o93 s3 (s phosphorothioate, o phosphodiester), T or U not given here) guide: UUCCGAAUAAACUCCAGGCCGUUUUAGAGCUAGAAAUAGCAAGUUAAAAUAAGGCUAGUCCGUUAUCAACUUGAAAAAGUGGCACCGAGUCGGUGCUUUU"
  OBSERVED_VALUE: 28.16
- MOLECULE: "GA196: PCSK9 gRNA; protospacer GAGTGACCACCGGGAAATCG (SEQ ID NO: 190) (nucleic acid, sugars from the 5' end m3 r94 m3, linkages s3 o93 s3 (s phosphorothioate, o phosphodiester), T or U not given here) guide: GAGUGACCACCGGGAAAUCGGUUUUAGAGCUAGAAAUAGCAAGUUAAAAUAAGGCUAGUCCGUUAUCAACUUGAAAAAGUGGCACCGAGUCGGUGCUUUU"
  OBSERVED_VALUE: 27.79
- MOLECULE: "GA200: PCSK9 gRNA; protospacer CTAGGAGATACACCTCCACC (SEQ ID NO: 194) (nucleic acid, sugars from the 5' end m3 r94 m3, linkages s3 o93 s3 (s phosphorothioate, o phosphodiester), T or U not given here) guide: CUAGGAGAUACACCUCCACCGUUUUAGAGCUAGAAAUAGCAAGUUAAAAUAAGGCUAGUCCGUUAUCAACUUGAAAAAGUGGCACCGAGUCGGUGCUUUU"
  OBSERVED_VALUE: 54.36
- MOLECULE: "GA162: PCSK9 gRNA; protospacer GGACGGCGACTACGAGGAGC (SEQ ID NO: 156) (nucleic acid) guide: mG*mG*mA*rCrGrGrCrGrArCrUrArCrGrArGrGrArGrCrGrUrUrUrUrArGrArGrCrUrArGrArArArUrArGrCrArArGrUrUrArArArArUrArArGrGrCrUrArGrUrCrCrGrUrUrArUrCrArArCrUrUrGrArArArArArGrUrGrGrCrArCrCrGrArGrUrCrGrGrUrGrCrU*mU*mU*mU"
  OBSERVED_VALUE: 28.26
- MOLECULE: "GA199: PCSK9 gRNA; protospacer GAAGCGGGTCCCGTCCTCCT (SEQ ID NO: 193) (nucleic acid, sugars from the 5' end m3 r94 m3, linkages s3 o93 s3 (s phosphorothioate, o phosphodiester), T or U not given here) guide: GAAGCGGGUCCCGUCCUCCUGUUUUAGAGCUAGAAAUAGCAAGUUAAAAUAAGGCUAGUCCGUUAUCAACUUGAAAAAGUGGCACCGAGUCGGUGCUUUU"
  OBSERVED_VALUE: 45.32
- MOLECULE: "GA169: PCSK9 gRNA; protospacer CGTGCGCAGGAGGACGAGGA (SEQ ID NO: 163) (nucleic acid, sugars from the 5' end m3 r94 m3, linkages s3 o93 s3 (s phosphorothioate, o phosphodiester), T or U not given here) guide: CGUGCGCAGGAGGACGAGGAGUUUUAGAGCUAGAAAUAGCAAGUUAAAAUAAGGCUAGUCCGUUAUCAACUUGAAAAAGUGGCACCGAGUCGGUGCUUUU"
  OBSERVED_VALUE: 42.38
- MOLECULE: "GA230: PCSK9 gRNA; protospacer AGTAGAGGCAGGCATCGTCC (SEQ ID NO: 224) (nucleic acid, sugars from the 5' end m3 r94 m3, linkages s3 o93 s3 (s phosphorothioate, o phosphodiester), T or U not given here) guide: AGUAGAGGCAGGCAUCGUCCGUUUUAGAGCUAGAAAUAGCAAGUUAAAAUAAGGCUAGUCCGUUAUCAACUUGAAAAAGUGGCACCGAGUCGGUGCUUUU"
  OBSERVED_VALUE: 35.86
- MOLECULE: "GA186: PCSK9 gRNA; protospacer CTCATCTTCACCAGGAAGCC (SEQ ID NO: 180) (nucleic acid) guide: mC*mU*mC*rArUrCrUrUrCrArCrCrArGrGrArArGrCrCrGrUrUrUrUrArGrArGrCrUrArGrArArArUrArGrCrArArGrUrUrArArArArUrArArGrGrCrUrArGrUrCrCrGrUrUrArUrCrArArCrUrUrGrArArArArArGrUrGrGrCrArCrCrGrArGrUrCrGrGrUrGrCrU*mU*mU*mU"
  OBSERVED_VALUE: 33.48
- MOLECULE: "GA184: PCSK9 gRNA; protospacer ATGGAAGACATGCAGGATCT (SEQ ID NO: 178) (nucleic acid) guide: mA*mU*mG*rGrArArGrArCrArUrGrCrArGrGrArUrCrUrGrUrUrUrUrArGrArGrCrUrArGrArArArUrArGrCrArArGrUrUrArArArArUrArArGrGrCrUrArGrUrCrCrGrUrUrArUrCrArArCrUrUrGrArArArArArGrUrGrGrCrArCrCrGrArGrUrCrGrGrUrGrCrU*mU*mU*mU"
  OBSERVED_VALUE: 31.87
